System: MDA-MB-231 breast
Measurement protocol: NCI tumour cell line growth inhibition, 48 h
Readout type: GI50

Dear reader, for each entry below, please note its GI50.
1. CN1C2C=CC(=O)C1C1C(=O)N(c3ccccc3)C(=O)C12 (centres undefined)
2. Cn1c(=O)c(-c2ccccc2Cl)cc2cnc(NC3CCOCC3)nc21
3. COc1cc(-c2nc(-c3ccccc3)c(-c3ccccc3)[nH]2)cc(OC)c1O
4. CCCN1C(=O)/C(=C/c2ccc(SC(F)(F)F)cc2)SC1=Nc1ccc(OC)cc1

1. 15.3 µM
2. 7.69 µM
3. 16.7 µM
4. 5.93 µM

Dear reader, for each entry below, please note its GI50.
1. COc1ccc2nc3ccccc3c(NCCNCCO)c2c1
2. NNc1c(C(N)=O)c2c(N)ncnc2n1C1OC(CO)C(O)C1O (centres undefined)
3. CC(=O)c1cc2c(N)c(C(=O)Nc3cccc4ccccc34)sc2nc1C
4. CC[C@H](C)[C@H](NC(=O)C12C3C4C1C1C2C3C41NC)C(=O)N(C)[C@H](C[C@@H](OC(C)=O)c1nc(C(=O)N[C@@H](Cc2ccccc2)C[C@H](C)C(=O)OC)cs1)C(C)C (some centres undefined)
5. Cc1ccc(NCCNCC(C)(C)O)c2c(=O)c3ccc(Cl)cc3sc12

1: 0.932 µM; 2: 0.086 µM; 3: 3.41 µM; 4: 0.798 µM; 5: 1.16 µM

----------
System: SNB-78 CNS
Measurement protocol: NCI tumour cell line growth inhibition, 48 h
Can you tell me TGI for the items I'm about to list?

Recorded results for 10 compounds are shown here.
>  <Compound>
COC(=O)CC1(O)C(=O)OCc2c1cc1n(c2=O)Cc2c-1nc1ccccc1c2OC (stereo unspecified)

>  <Observed value>
> 100 µM

$$$$
>  <Compound>
O=P(CN1CCOCC1)(c1ccccc1)c1ccccc1

>  <Observed value>
> 100 µM

$$$$
>  <Compound>
N#C[S-].[La+3].c1ccc(-c2ccccn2)nc1.c1ccc(-c2ccccn2)nc1.c1ccc(-c2ccccn2)nc1

>  <Observed value>
> 100 µM

$$$$
>  <Compound>
CNC(=S)N/N=C/C(C)=N/NC(=S)NC

>  <Observed value>
> 100 µM

$$$$
>  <Compound>
COc1cc2c(oc(=O)c3c4occc4cc(OC)c23)c2cccc(O)c12

>  <Observed value>
> 100 µM

$$$$
>  <Compound>
COC(=O)c1c(C(=O)OC)c(-c2ccccc2)n(-c2ccccc2)c(=O)c1-c1ccccc1

>  <Observed value>
> 100 µM

$$$$
>  <Compound>
O=C1CCC(c2ccccc2)=NN1c1nc2ccccc2s1

>  <Observed value>
> 100 µM

$$$$
>  <Compound>
O=C(/C=C/c1ccccc1)c1ccc(Cl)cc1Cl

>  <Observed value>
49.3 µM

$$$$
>  <Compound>
COc1ccc(/C=C/C(=O)c2c(-c3ccccc3)nn(C)c(=O)c2N2CC2C)cc1 (stereo unspecified)

>  <Observed value>
63.1 µM

$$$$
>  <Compound>
Cc1c(Cl)ccc2c1NC(=O)C2(O)CC(=O)c1ccc(Cl)cc1 (stereo unspecified)

>  <Observed value>
> 100 µM

$$$$

Shifting focus to the compound that follows.
Can you look up the measured TGI of CCCC1C[C@H]2CCCCN2[C@H]2CCCN12 (stereo partly specified) for me?
> 100 µM

----------
Test system: SW-620 colon
Measurement protocol: NCI tumour cell line growth inhibition, 48 h
Can you tell me TGI for the items I'm about to list?

Recorded results for 4 compounds are shown here.
>  <Compound>
C/C(=C\C(=O)Nc1ccc2n[nH]nc2c1)Nc1ccc2n[nH]nc2c1

>  <TGI>
> 100 µM

$$$$
>  <Compound>
COc1cc2c(c(OC)c1OC)-c1cc(I)c(O)cc1[C@@H](NC(C)=O)CC2

>  <TGI>
> 100 µM

$$$$
>  <Compound>
CN(C)C(=O)C(F)(F)C(c1ccccc1Br)C1C(=O)N(C)C(=O)N(C)C1=O (centres undefined)

>  <TGI>
> 100 µM

$$$$
>  <Compound>
Cc1c(Cl)ccc2c1NC(=O)C2(O)CC(=O)c1ccc(Cl)cc1 (centres undefined)

>  <TGI>
> 53.1 µM

$$$$

Dear reader, for each entry below, please note its TGI.
1. COc1cc(N=Nc2cc(Cc3ccc(N(C)C)cc3)c(N)cc2N(C)C)c2ncccc2c1
2. O=c1cc(-c2cccc(OC(F)(F)F)c2)[nH]c2ccc(N3CCCC3)cc12
3. CC[C@H](C)[C@H](NC(=O)[C@H]1CCCCN1C)C(=O)N(C)[C@H](CCc1nc(C(=O)N[C@@H](Cc2ccccc2)C[C@H](C)C(=O)O)cs1)C(C)C
4. N[C@@H]1CCCN(c2c(Br)cnc3[nH]cc(NC(=O)C4CC4)c23)C1
5. Clc1ccc2c(NCCNc3nc(N4CCOCC4)nc4ccccc34)ccnc2c1

1: 2.16 µM; 2: > 100 µM; 3: > 25 µM; 4: > 100 µM; 5: 10.8 µM

----------
Test system: UACC-257 melanoma
Measurement protocol: NCI tumour cell line growth inhibition, 48 h
Can you tell me log10 of TGI for the items I'm about to list?
On a log10 scale: recorded TGI, unit µM.

>  <Molecule>
COC(=O)c1c(C)nc(C)c2c1C(=O)C(Br)=C(NCc1ccccc1)C2=O

>  <log10 of TGI>
0.50

$$$$

Dear reader, for each entry below, please note its log10 of TGI.
1. O=C1/C(=C/c2ccc(Cl)cc2)CCC1CNc1ccc(Cl)cc1 (centres undefined)
2. Cc1c2cc[n+](Cc3ccc(I)cc3)cc2c(C)c2c1[nH]c1ccccc12
3. [O]=[Sn]([CH]1CCCCC1)[CH]1CCCCC1
4. CNC(=O)CCN1CCN(CC/C=C2\c3ccccc3Sc3ccc(Cl)cc32)CC1

[1.51, 0.32, -0.42, 0.49]

----------
Test system: MOLT-4 leukemia
Measurement protocol: NCI tumour cell line growth inhibition, 48 h
Readout type: TGI

>  <Molecule>
CC(C)(O)C1COC2=C1C(=O)c1ccccc1C2=O (stereo not given)

>  <TGI>
71.2 µM

$$$$
>  <Molecule>
O=C1/C(=C/c2ccc(Cl)cc2)CCC1CNc1ccc(Cl)cc1 (stereo not given)

>  <TGI>
27.5 µM

$$$$
>  <Molecule>
CC(C)(C)N/N=C(/Cc1nc2c3c(ccc2[nH]c1=O)C(=O)c1ccccc1C3=O)C(=O)NC1=C(Cl)C(=O)c2ccccc2C1=O

>  <TGI>
> 100 µM

$$$$
>  <Molecule>
Cc1c(Cl)ccc2c1NC(=O)C2(O)CC(=O)c1ccc(Cl)cc1 (stereo not given)

>  <TGI>
63.7 µM

$$$$
>  <Molecule>
O=c1cc(-c2ccccc2)oc2ccc(Cl)cc12

>  <TGI>
98.7 µM

$$$$

Dear reader, for each entry below, please note its TGI.
1. CC(=O)O[C@H]1[C@@H](N2CCOCC2)C[C@H]2[C@@H]3CC=C4C[C@@H](N5CCCC5)CC[C@]4(C)[C@H]3CC[C@@]21C
2. Nc1nc(Cl)c(CO)c(NCC2(CO)CCC2)n1
3. Oc1c(Br)cc2c(c1Br)-c1c(c(O)c3c4c1=NCCC=4C=N3)NCC2

1: > 100 µM; 2: > 100 µM; 3: 9.79 µM

Dear reader, for each entry below, please note its TGI.
1. NC(=NCCCCCCN=C(N)/N=C(\N)Nc1ccc(Cl)cc1)/N=C(\N)Nc1ccc(Cl)cc1
2. CCOP1(=O)CC(C)=C(Cl)C(OC)C1 (stereo not given)

2.84 µM
> 100 µM

----------
Test system: HCC-2998 colon
Measurement protocol: NCI tumour cell line growth inhibition, 48 h; in the data active = GI50 below about 0.43 µM; inactive = the rest
The categories you may choose from are t (active), f (inactive)

Record excerpt, results attached:
>  <Compound>
CCCCCCCCCCCC1N=C(N)N=C(N)N1c1cccc(Br)c1 (configuration not stated)

>  <Assigned category>
f

$$$$
>  <Compound>
CCSC[C@@H]1C[C@](O)(c2ccccc2)[C@@H](c2ccccc2)O1

>  <Assigned category>
f

$$$$
>  <Compound>
COc1cc(C(=O)c2cnc(-c3c[nH]c4cccc(C)c34)[nH]2)cc(OC)c1OC

>  <Assigned category>
t

$$$$

Outcome logged for CC(=O)ON(OCc1ccc2ccccc2c1)C(C)=O in this assay:
f

Query [O]=[Sn]([CH]1CCCCC1)[CH]1CCCCC1 next
t

Query CN1CCCCC1CCN1c2ccccc2Sc2ccc(Br)cc21 (configuration not stated) next
f

Query Nc1ccc(CC[C@H]2CCC/C=C/[C@@H]3C[C@H](O)C[C@H]3[C@H](O)/C=C/C(=O)O2)cc1 next
t

Query Cc1cc(NC(=O)NCc2ccc(N3C(N)=NC(N)=NC3(C)C)cc2)ccc1S(=O)(=O)F next
f

Query CCn1cc(C(=O)O)c(=O)c2cc(F)c(N3CCN(S(=O)(=O)c4ccc(Cl)cc4Cl)CC3)cc21 next
f

Query Clc1ccc2c(NCCNc3nc(N4CCOCC4)nc4ccccc34)ccnc2c1 next
f

Query CCn1c(-c2nonc2N)nc2ccccc21 next
f

Query Cn1cc(-c2cc(-c3cn(C)c4ccccc34)[nH]n2)c2ccccc21 next
f
